target: SARS-CoV-2 Mpro (Severe acute respiratory syndrome coronavirus 2, UniProt P0DTD1)
pIC50: −log10 of the molar value.
Below, each entry is listed alongside its reported pIC50.

Study these solved cases before continuing.
Ask | Give its pIC50 value. Item: COc1ccc(CCN2C(=O)CSC2c2ccc([N+](=O)[O-])cc2)cc1 (stereo not shown)
Reply | < 4.52

Ask | Give its pIC50 value. Item: O=C1CSC(c2ccc([N+](=O)[O-])cc2)N1CCc1ccc(Cl)cc1 (stereo not shown)
Reply | < 4.52

Ask | Give its pIC50 value. Item: COc1ccccc1CCN1C(=O)CSC1c1ccc([N+](=O)[O-])cc1 (stereo not shown)
Reply | < 4.52

Now look at this entry.
Ask | Give its pIC50 value. Item: O=C1CSC(c2ccc([N+](=O)[O-])cc2)N1CCc1ccccc1Cl (stereo not shown)
Reply | 4.59
